The measurements presented in this section are drawn from ChEMBL document CHEMBL1141723.

In what follows, each item is paired with its IC50 for Interstitial collagenase (Homo sapiens, UniProt P03956).
Give a bare numeral; the unit µM is implied.

INSERT INTO assay_data (molecular_string, numeric_readout) VALUES
  ('CC#CCOc1ccc(S(=O)(=O)CC2(C(=O)NO)CCN(c3c(C)noc3C)CC2)cc1', 37.3);

Now turn to the next molecule.
The recorded IC50 with Interstitial collagenase (Homo sapiens, UniProt P03956) for CC#CCOc1ccc(S(=O)(=O)N[C@@H](C(=O)NO)[C@H](C)O)cc1 was 2.47

---

target.or.test.system: Matrilysin (Homo sapiens)
Sequence (P09237 whole entry): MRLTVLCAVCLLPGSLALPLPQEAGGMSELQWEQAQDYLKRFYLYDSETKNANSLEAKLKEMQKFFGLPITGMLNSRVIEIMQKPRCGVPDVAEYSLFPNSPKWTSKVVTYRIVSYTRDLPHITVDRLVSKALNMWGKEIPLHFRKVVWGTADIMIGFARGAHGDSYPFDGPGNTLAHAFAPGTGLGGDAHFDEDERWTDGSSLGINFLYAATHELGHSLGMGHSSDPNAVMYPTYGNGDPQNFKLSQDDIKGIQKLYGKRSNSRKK
measured.endpoint: IC50 (nM)
Give a bare numeral; the unit nM is implied.

The recorded IC50 with Matrilysin (Homo sapiens) for CC#CCOc1ccc(S(=O)(=O)N[C@@H](C(=O)NO)[C@H](C)O)cc1 was 961

---

target.or.test.system: Matrix metalloproteinase-16 (Homo sapiens)
pKi: −log10 of the molar value.
measured.endpoint: pKi

Data point: O=C1NCCCC[C@@H](C(=O)NCC(=O)N2CCOCC2)NC(=O)[C@H](Cc2ccc(-c3ccccc3C(F)(F)F)cc2)[C@@H](C(=O)NO)CCCO1 ; pKi = < 5.70

---

target.or.test.system: Disintegrin and metalloproteinase domain-containing protein 17 (Homo sapiens, UniProt P78536)
Sequence (P78536 whole entry, the tested form may be a part): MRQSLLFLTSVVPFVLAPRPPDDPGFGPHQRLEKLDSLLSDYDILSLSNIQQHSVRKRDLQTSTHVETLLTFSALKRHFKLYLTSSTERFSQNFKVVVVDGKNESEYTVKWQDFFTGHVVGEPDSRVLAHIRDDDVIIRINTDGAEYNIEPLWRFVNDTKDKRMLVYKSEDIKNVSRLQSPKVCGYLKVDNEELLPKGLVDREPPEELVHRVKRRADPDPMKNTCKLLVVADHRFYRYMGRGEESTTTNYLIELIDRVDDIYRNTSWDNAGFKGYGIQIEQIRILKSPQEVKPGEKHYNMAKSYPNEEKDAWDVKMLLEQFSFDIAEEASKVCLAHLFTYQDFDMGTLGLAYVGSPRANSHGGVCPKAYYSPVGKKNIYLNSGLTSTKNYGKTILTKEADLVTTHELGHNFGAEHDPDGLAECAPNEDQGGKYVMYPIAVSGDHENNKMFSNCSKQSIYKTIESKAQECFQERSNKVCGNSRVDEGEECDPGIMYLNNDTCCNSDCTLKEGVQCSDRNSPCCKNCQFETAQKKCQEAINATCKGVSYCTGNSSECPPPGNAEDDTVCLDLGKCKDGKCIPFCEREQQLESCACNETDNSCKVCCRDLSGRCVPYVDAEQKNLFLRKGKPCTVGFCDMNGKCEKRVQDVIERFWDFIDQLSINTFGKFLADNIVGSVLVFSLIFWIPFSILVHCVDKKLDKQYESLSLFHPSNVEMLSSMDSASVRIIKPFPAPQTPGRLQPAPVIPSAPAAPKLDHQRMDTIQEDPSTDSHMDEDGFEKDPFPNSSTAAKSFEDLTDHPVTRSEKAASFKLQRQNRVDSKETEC
measured.endpoint: Ki (µM)
Give a bare numeral; the unit µM is implied.

Data point: O=S(=O)(CC1CS1)c1ccc(Oc2ccccc2)cc1 (configuration not stated) ; Ki = 3.7

---

target.or.test.system: Angiotensin-converting enzyme (Homo sapiens, UniProt P12821)
Sequence (P12821 whole entry): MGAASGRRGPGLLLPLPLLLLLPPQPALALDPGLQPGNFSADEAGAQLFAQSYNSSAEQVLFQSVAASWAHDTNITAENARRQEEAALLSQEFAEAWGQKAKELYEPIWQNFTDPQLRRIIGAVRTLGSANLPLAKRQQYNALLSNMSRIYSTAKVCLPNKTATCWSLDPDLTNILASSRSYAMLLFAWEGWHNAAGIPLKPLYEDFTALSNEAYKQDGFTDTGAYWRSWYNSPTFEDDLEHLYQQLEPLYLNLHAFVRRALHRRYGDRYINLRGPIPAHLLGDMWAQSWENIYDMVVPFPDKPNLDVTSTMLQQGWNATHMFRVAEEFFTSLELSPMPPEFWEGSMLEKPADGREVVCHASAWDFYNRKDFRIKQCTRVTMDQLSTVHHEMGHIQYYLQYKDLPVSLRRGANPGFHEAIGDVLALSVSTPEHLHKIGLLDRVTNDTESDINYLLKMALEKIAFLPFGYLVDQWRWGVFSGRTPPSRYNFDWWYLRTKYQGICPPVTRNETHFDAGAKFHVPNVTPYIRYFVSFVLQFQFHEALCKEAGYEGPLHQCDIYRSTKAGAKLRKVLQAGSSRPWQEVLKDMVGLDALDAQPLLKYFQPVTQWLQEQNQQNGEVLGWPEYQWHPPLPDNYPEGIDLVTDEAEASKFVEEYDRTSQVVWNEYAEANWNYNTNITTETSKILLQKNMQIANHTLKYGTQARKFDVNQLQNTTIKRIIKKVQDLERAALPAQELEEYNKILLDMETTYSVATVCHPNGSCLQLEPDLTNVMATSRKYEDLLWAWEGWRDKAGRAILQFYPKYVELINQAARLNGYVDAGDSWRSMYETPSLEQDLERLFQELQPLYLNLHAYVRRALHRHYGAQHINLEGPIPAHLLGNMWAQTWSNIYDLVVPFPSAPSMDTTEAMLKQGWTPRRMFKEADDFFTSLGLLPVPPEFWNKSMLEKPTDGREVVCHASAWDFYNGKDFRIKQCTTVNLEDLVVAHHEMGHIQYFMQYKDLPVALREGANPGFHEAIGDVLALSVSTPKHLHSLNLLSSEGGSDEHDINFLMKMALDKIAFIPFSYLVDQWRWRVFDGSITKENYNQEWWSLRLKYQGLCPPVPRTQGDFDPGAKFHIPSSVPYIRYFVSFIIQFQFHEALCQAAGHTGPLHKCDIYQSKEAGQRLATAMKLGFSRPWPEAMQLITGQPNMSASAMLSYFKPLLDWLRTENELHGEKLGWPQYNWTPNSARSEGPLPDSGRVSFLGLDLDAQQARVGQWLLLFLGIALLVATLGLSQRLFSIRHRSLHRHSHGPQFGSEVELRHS
pKi: −log10 of the molar value.
measured.endpoint: pKi

Data point: NC(=O)[C@H](CCC(=O)O)NC(=O)[C@H](CCC(=O)O)NC(=O)[C@H](Cc1cc(-c2ccc(-c3cccc(Cl)c3)cc2)no1)CP(=O)(O)c1ccc(Br)cc1 ; pKi = < 4.00

---

target.or.test.system: Neutrophil collagenase (Homo sapiens, UniProt P22894)
Sequence (P22894 whole entry): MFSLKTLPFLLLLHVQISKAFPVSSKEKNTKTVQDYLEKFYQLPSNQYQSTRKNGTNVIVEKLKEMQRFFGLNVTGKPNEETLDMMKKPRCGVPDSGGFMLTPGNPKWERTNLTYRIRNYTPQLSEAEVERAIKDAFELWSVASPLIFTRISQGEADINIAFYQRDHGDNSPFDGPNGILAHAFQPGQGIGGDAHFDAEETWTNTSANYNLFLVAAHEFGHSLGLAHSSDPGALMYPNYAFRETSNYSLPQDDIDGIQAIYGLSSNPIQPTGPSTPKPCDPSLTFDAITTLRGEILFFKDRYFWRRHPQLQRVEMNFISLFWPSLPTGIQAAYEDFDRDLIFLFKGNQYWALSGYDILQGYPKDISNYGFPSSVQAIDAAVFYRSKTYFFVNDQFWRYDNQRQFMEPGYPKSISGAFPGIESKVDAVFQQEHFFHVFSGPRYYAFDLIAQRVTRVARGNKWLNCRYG
test.details: Inhibition of MMP8
measured.endpoint: IC50 (nM)
Give a bare numeral; the unit nM is implied.

Data point: O=C(O)C[C@@H](NC(=O)c1cc(-c2ccc(-c3ccncc3)cc2)cs1)c1ccccc1 ; IC50 = 1700

Data point: COc1c(Br)ccc2oc(COc3ccc(-c4ccc(S(=O)(=O)N[C@@H](C(=O)O)C(C)C)cc4)cc3)c(C)c12 ; IC50 = 42

Data point: CC#CCOc1ccc(S(=O)(=O)N[C@@H](C(=O)NO)[C@H](C)O)cc1 ; IC50 = 35

---

target.or.test.system: UniProtKB P14780
Sequence (P14780 whole entry): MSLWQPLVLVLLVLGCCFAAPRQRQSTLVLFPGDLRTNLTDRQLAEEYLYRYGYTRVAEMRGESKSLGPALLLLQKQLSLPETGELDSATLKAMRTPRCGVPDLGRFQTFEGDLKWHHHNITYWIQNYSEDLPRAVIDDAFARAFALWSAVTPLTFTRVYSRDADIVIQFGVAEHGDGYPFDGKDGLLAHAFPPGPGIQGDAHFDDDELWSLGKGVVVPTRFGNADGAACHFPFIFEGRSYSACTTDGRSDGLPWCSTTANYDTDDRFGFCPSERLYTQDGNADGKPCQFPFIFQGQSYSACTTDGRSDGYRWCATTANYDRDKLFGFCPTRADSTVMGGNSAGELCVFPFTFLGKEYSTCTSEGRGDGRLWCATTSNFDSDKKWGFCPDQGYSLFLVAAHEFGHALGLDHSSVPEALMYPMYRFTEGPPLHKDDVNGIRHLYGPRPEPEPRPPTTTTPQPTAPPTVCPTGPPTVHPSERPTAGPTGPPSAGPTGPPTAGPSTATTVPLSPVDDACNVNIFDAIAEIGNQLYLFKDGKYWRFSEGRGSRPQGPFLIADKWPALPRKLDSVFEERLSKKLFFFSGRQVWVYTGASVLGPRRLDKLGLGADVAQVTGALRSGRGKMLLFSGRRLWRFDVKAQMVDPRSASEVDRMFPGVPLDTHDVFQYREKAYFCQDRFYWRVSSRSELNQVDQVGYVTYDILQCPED
measured.endpoint: IC50 (nM)
Give a bare numeral; the unit nM is implied.

INSERT INTO results (molecular_string, measured_endpoint, unit_tag, numeric_readout) VALUES
  ('COC[C@@H](NC(=O)[C@@H](NC(=O)[C@H](CCCc1ccc(-c2ccccc2)c(C)c1)CC(=O)NO)C(C)(C)C)c1ccccc1', 'IC50', 'nM', 560);

Now turn to the next compound.
The recorded IC50 with UniProtKB P14780 for CC#CCOc1ccc(S(=O)(=O)N[C@@H](C(=O)NO)[C@H](C)O)cc1 was 777

---

target.or.test.system: Disintegrin and metalloproteinase domain-containing protein 10 (Homo sapiens, UniProt O14672)
Sequence (O14672 whole entry, the tested form may be a part): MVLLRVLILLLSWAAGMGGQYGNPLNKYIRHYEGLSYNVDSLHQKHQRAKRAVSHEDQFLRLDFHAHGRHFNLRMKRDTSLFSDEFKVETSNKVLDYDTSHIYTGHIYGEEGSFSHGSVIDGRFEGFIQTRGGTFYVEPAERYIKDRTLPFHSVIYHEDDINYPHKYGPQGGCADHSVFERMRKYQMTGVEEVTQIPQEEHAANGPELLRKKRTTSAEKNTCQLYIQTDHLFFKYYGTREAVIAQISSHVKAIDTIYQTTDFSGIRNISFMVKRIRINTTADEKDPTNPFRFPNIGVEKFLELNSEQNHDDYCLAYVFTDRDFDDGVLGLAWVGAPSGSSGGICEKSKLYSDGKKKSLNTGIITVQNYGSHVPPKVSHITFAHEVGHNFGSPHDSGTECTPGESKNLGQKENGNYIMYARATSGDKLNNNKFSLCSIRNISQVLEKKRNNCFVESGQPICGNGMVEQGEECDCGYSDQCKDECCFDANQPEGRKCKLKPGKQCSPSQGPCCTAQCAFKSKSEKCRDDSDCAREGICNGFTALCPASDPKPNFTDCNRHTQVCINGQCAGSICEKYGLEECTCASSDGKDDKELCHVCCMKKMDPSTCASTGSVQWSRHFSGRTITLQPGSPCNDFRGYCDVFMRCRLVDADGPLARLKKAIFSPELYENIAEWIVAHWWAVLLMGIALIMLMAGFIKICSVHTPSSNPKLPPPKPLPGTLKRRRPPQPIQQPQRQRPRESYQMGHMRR
measured.endpoint: pIC50
# log scale: pIC50 equals minus log10 of the concentration in mol/L

INSERT INTO results (molecular_string, measured_endpoint, numeric_readout) VALUES
  ('Cc1cc(C#N)ccc1N1CCN(S(=O)(=O)CC2(C(=O)NO)CCN(C(=O)O[C@@H]3CCOC3)CC2)CC1', 'pIC50', 7.59);

Data point: CN1CC2(CC2)C[C@H](C(=O)NO)[C@H]1C(=O)N1CCN(c2ccc(C(F)(F)F)cn2)CC1 ; pIC50 = 7.01

Data point: CC#CCOc1ccc(S(=O)(=O)N[C@@H](C(=O)NO)[C@H](C)O)cc1 ; pIC50 = 5.96
